Assignment: determine reported ECmax; SRE-luciferase reporter for the given binders.
Target: T1, GPR39 (G protein coupled receptor 39) (UniProt O43194 1-453, limits assumed)
T1 sequence (looked up): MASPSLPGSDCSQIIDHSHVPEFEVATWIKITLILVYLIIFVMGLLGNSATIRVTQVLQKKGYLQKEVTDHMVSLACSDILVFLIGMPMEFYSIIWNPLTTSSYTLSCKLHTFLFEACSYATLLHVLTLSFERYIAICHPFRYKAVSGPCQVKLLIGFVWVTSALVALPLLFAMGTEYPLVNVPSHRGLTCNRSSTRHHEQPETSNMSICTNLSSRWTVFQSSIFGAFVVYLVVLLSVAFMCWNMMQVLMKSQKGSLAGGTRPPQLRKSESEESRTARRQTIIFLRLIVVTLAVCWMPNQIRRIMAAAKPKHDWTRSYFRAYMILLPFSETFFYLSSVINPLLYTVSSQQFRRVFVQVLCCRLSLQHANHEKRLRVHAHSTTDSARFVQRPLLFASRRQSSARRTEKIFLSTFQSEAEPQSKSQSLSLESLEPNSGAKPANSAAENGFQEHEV
Assay: cell-based or functional assay
Square brackets hold non-standard residues; d marks the D form. Ends that are not written are not given here. * marks the point of attachment. DAMP‑5 = 3-(2-cyclohexylethyl) substitution on the histidine imidazole ring (3-(2-cyclohexylethyl)-2,3-dihydro-1H-imidazol-4-yl side chain); Tyr(3,5-(NO2)2) = N[C@@H](Cc1cc([N+](=O)[O-])c(O)c([N+](=O)[O-])c1)C(=O)O; dPhe(4-Me) = Cc1ccc(C[C@@H](N)C(=O)O)cc1; Trt = c1ccc(C(c2ccccc2)(c2ccccc2)*)cc1; Benzhydryl = c1ccc(C(c2ccccc2)*)cc1; Octanoyl = CCCCCCCC(=O)*

These solved cases illustrate the format of a correct answer.
[
  {
    "BINDER": "H(DAMP‑5)K(Octanoyl)FY [HKFY-7]",
    "ECmax; SRE-luciferase reporter": "16 -fold induction over basal"
  },
  {
    "BINDER": "[dH](Trt)K(Octanoyl)FY [HKFY-4]",
    "ECmax; SRE-luciferase reporter": "16.8 -fold induction over basal"
  }
]

Next binder, please.
Briefly, ECmax; SRE-luciferase reporter measured for H(Benzhydryl)K(Octanoyl)[dPhe(4-Me)][Tyr(3,5-(NO2)2)] [HKFY-69] : 12.2 -fold induction over basal

Values were extracted from patent US20250340591A1.
